Experimental Target: Serine/threonine-protein kinase 4 (Homo sapiens) (UniProt Q13043);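 also: mean inhibition of MST1, reported as part of the GSK PKIS dataset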
Sequence (Q13043 whole entry): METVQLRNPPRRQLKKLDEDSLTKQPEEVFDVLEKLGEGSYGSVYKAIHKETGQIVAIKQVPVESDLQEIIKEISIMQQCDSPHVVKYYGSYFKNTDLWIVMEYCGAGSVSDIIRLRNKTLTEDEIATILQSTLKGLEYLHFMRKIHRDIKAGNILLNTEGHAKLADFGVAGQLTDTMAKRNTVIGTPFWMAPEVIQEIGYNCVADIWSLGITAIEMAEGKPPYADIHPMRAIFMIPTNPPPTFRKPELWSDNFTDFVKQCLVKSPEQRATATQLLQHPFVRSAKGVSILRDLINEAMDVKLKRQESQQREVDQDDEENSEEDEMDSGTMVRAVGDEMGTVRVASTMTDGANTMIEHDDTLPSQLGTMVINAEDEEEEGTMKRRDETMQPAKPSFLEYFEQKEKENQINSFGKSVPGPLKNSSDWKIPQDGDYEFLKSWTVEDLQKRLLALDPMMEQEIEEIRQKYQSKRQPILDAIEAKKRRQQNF
Run Parameters: at 0.1 µM
Observed Property: inhibition (%)

> print(dat)
                                    compound  u  experimental.value
 1  COc1ccc2cc(-c3c(-c4ccncc4)nc(-c4ccc(S(C)(=O)=O)cc4C)n3C)ccc2c1  %                2.82
 2  O=C(Nc1n[nH]c2nc(-c3ccc(O)cc3)c(Br)cc12)C1CC1  %                5.36
 3    Clc1ccc(CNc2nccc(-c3cnn4ncccc34)n2)cc1  %                3.22
 4  C#Cc1cccc(Nc2ncnc3ccc(OCCCCNCCS(C)(=O)=O)cc23)c1  %                4.35
 5  NS(=O)(=O)c1ccc(Nc2cc(-c3ccc(O)c(F)c3)n[nH]2)cc1  %               -1.34
 6  COc1cc(C)c(N(C)C(=O)CN(C)C)cc1Nc1nc(Nc2cccc(F)c2C(N)=O)c2cc[nH]c2n1  %                4.57
 7       Fc1ccc(-c2c(-c3ccncc3)nc3n2CCS3)cc1  %                1.09
 8  Cc1ccc(NC(=O)c2ccoc2)cc1-c1ccc(C(=O)NCC2CC2)cc1  %                4.29
 9  CN1CCN(CCCNc2nc3ccc(Oc4ccc(NC(=O)Nc5cc(C(F)(F)F)ccc5F)cc4)cc3[nH]2)CC1  %                3.59
10   O=C1Nc2ccc(I)cc2C1=Cc1cc(Br)c(O)c(Br)c1  %                3.39
11  CN(C)c1ccc2c(c1)/C(=C/Nc1ccc(S(N)(=O)=O)cc1)C(=O)N2  %                44.2
12  NC(=O)Cc1ccccc1Oc1nccc(-c2c(-c3ccc(F)cc3)ncn2C2CCNCC2)n1  %                 1.4
13  C/C(Nc1ccc(S(N)(=O)=O)cc1)=C1/C(=O)Nc2ccccc21  %                10.2
14              CCc1nccc2c1nc(-c1nonc1N)n2CC  %               -1.14
15      CCc1cccc(CC)c1/C=C/c1cncc(C(=O)NC)c1  %                5.37
16  O=C(Nc1n[nH]c2cc(-c3cc(F)ccc3F)ccc12)C1CC1  %                1.85
17  COc1cc(N2CCN(C(C)C)CC2)ccc1Nc1nc(Nc2ccc(F)cc2C(=O)NC[C@@H](O)CO)c2cc[nH]c2n1  %                4.86
18  COc1ccc2cc(-c3c(-c4ccncc4)nc(-c4ccc([S+](C)[O-])cc4C)n3C)ccc2c1 (stereo not given)  %               -2.13
19  C[C@@H](Oc1cc(-n2cnc3ccc(OCC4CCN(C)CC4)cc32)sc1C(N)=O)c1ccccc1Cl  %                14.8
20     NCc1ccc(-n2c(-c3nonc3N)nc3cnccc32)cc1  %                9.89
21  Fc1ccc(-c2ncn(C3CCNCC3)c2-c2ccnc(Oc3ccc4c(c3)OCO4)n2)cc1  %                4.76
22  COc1cc2ncn(-c3cc(OCCc4ccccc4)c(C(N)=O)s3)c2cc1OC  %                2.99
23  N#Cc1ccc(Oc2nccc(-c3c(-c4ccc(F)cc4)ncn3C3CCNCC3)n2)cc1  %                3.35
24  COc1cc(Nc2ncc3c(C)nc(-c4cccc(C(F)(F)F)c4)n3n2)cc(OC)c1OC  %                7.12
25  CS(=O)(=O)CCNCc1ccc(-c2ccc3ncnc(Nc4ccc(OCc5ccccc5)c(Br)c4)c3c2)o1  %                2.67
26  c1ccc(Oc2ccc(Nc3ncc(-c4ccccc4)o3)cc2)cc1  %                1.03
27  O=C(NCC1CC1)c1ccc(-c2cccc(C(=O)NC3CC3)c2)cc1  %                4.49
28  Cc1ccc(C(=O)NC(C)C)cc1-c1ccc(C(=O)NCC2CC2)cc1  %               -3.24
29  COc1cc2ncn(-c3cc(OCc4ccccc4C(F)(F)F)c(C(C)=O)s3)c2cc1OC  %                3.51
30  NS(=O)(=O)c1ccc(N/N=C2\C(=O)Nc3ccc(-c4cnco4)cc32)cc1  %                43.8
31  Fc1ccc(-c2ncn(C3CCNCC3)c2-c2ccnc(Oc3ccc(Oc4ccccc4)cc3)n2)cc1  %                2.43
32  COc1cccc(-n2cnc3c(N/N=C/c4ccncc4)ncnc32)c1  %                 3.6
33  CCc1ccc(Oc2nccc(-c3c(-c4ccc(F)cc4)ncn3C3CCNCC3)n2)cc1  %                3.84
34  Fc1ccc(-c2ncn(CCCN3CCOCC3)c2-c2ccncc2)cc1  %                 1.3
35  COc1cccc(/C=N/Nc2ncnc3c2cnn3-c2cccc(OC)c2)c1  %                2.42
36  CN(C)CCOc1ccc(-c2cc(-c3ccc4c(c3)CCC4=NO)c(-c3ccncc3)o2)cc1  %               -0.36
37     COc1cc(Nc2ncc(-c3ccccc3)o2)cc(OC)c1OC  %               -2.33
38  CCN(CC)Cc1ccc(Nc2nccc(-c3cnn4ncccc34)n2)cc1  %                1.35
39  COc1ccc(-c2ccc3c(NC(=O)C4CC4)n[nH]c3n2)cc1  %                2.12
40  O=C(Nc1ccc(Oc2ccc3[nH]c(NC(=O)c4ccccc4)nc3c2)cc1)Nc1cc(C(F)(F)F)ccc1F  %                5.74
